MIC tested on Bacillus cereus 33018: recorded values
The answer is to be given in µg/mL; state only the numeric part.

In: Please list MIC recorded for the compound `Cc1cc(C)c2c3c(sc2n1)C(SCC(N)=O)=NC1(CCCCC1)N3`
Out: 8

In: Please list MIC recorded for the compound `Cc1cc(C)c2c3c(sc2n1)C(=O)NC1(CCCCC1)N3`
Out: 8

In: Please list MIC recorded for the compound `Cc1ccc(-c2cc(-c3ccccc3)nc3sc4c(c23)NC2(CCCCC2)NC4=S)cc1`
Out: 64

In: Please list MIC recorded for the compound `Cc1cc(C)c2c(n1)sc1c(Cl)nc(Cl)nc12`
Out: 8

In: Please list MIC recorded for the compound `Cc1cc(C)c2c3c(sc2n1)C(=O)NC1(CCCC1)N3`
Out: 8

In: Please list MIC recorded for the compound `Cc1ccc(-c2cc(-c3ccccc3)nc3sc4c(=O)[nH]c(CCl)nc4c23)cc1`
Out: 16

In: Please list MIC recorded for the compound `Cc1ccc(-c2cc(-c3ccccc3)nc3sc4c(Cl)nc(Cl)nc4c23)cc1`
Out: 32

In: Please list MIC recorded for the compound `Cc1ccc(-c2cc(-c3ccccc3)nc3sc4c(=O)[nH]c(CN5CCN(C)CC5)nc4c23)cc1`
Out: 16

In: Please list MIC recorded for the compound `Cc1ccc(-c2cc(-c3ccccc3)nc3sc4c(=O)[nH]c(=O)[nH]c4c23)cc1`
Out: 64

----------
Metric: MIC

In: Find the measured MIC of Cc1ccc(-c2cc(-c3ccccc3)nc3sc4c(=O)[nH]c(CCl)nc4c23)cc1 [Compound 4b] with Saccharomycese cerevisiae as test system.
Out: 8 µg/mL

In: Find the measured MIC of Cc1ccc(-c2cc(-c3ccccc3)nc3sc4c(c23)NC2(CCCCC2)NC4=S)cc1 [Compound 7d] with Saccharomycese cerevisiae as test system.
Out: 32 µg/mL

In: Find the measured MIC of Cc1cc(C)c2c3c(sc2n1)C(SCC1CO1)=NC1(CCCCC1)N3 (stereo not drawn) [Compound 9a] with Saccharomycese cerevisiae as test system.
Out: 32 µg/mL

----------
What MIC was measured for each of the following?
The answer is to be given in µg/mL; state only the numeric part.

In: Find the measured MIC of `Cc1cc(C)c2c3c(sc2n1)C(=S)NC1(CCCC1)N3` with Aspergillus niger EM77 (KF774181) as test system.
Out: 16

In: Find the measured MIC of `Cc1cc(C)c2c(n1)sc1c(=O)[nH]c(CCl)nc12` with Aspergillus niger EM77 (KF774181) as test system.
Out: 8

In: Find the measured MIC of `Cc1ccc(-c2cc(-c3ccccc3)nc3sc4c(=O)[nH]c(CCl)nc4c23)cc1` with Aspergillus niger EM77 (KF774181) as test system.
Out: 16

In: Find the measured MIC of `Cc1cc(C)c2c3c(sc2n1)C(=S)NC1(CCCCC1)N3` with Aspergillus niger EM77 (KF774181) as test system.
Out: 16

In: Find the measured MIC of `Cc1cc(C)c2c3c(sc2n1)C(SCC(N)=O)=NC1(CCCCC1)N3` with Aspergillus niger EM77 (KF774181) as test system.
Out: 16

In: Find the measured MIC of `Cc1cc(C)c2c(n1)sc1c(Cl)nc(Cl)nc12` with Aspergillus niger EM77 (KF774181) as test system.
Out: 8

In: Find the measured MIC of `Cc1ccc(-c2cc(-c3ccccc3)nc3sc4c(=O)[nH]c(=O)[nH]c4c23)cc1` with Aspergillus niger EM77 (KF774181) as test system.
Out: 32

In: Find the measured MIC of Cc1ccc(-c2cc(-c3ccccc3)nc3sc4c(c23)NC2(CCCC2)N=C4SCC2CO2)cc1 (stereo not drawn) with Aspergillus niger EM77 (KF774181) as test system.
Out: 8

In: Find the measured MIC of `Cc1ccc(-c2cc(-c3ccccc3)nc3sc4c(=O)[nH]c(CN5CCN(C)CC5)nc4c23)cc1` with Aspergillus niger EM77 (KF774181) as test system.
Out: 64

In: Find the measured MIC of Cc1cc(C)c2c3c(sc2n1)C(SCC1CO1)=NC1(CCCCC1)N3 (stereo not drawn) with Aspergillus niger EM77 (KF774181) as test system.
Out: 64

In: Find the measured MIC of `Cc1cc(C)c2c3c(sc2n1)C(=O)NC1(CCCC1)N3` with Aspergillus niger EM77 (KF774181) as test system.
Out: 32

In: Find the measured MIC of `Cc1ccc(-c2cc(-c3ccccc3)nc3sc4c(=O)[nH]c(CN5CCOCC5)nc4c23)cc1` with Aspergillus niger EM77 (KF774181) as test system.
Out: 16

In: Find the measured MIC of `Cc1ccc(-c2cc(-c3ccccc3)nc3sc4c(c23)NC2(CCCCC2)NC4=O)cc1` with Aspergillus niger EM77 (KF774181) as test system.
Out: 16

In: Find the measured MIC of `Cc1cc(C)c2c3c(sc2n1)C(=O)NC1(CCCCC1)N3` with Aspergillus niger EM77 (KF774181) as test system.
Out: 8

In: Find the measured MIC of `Cc1ccc(-c2cc(-c3ccccc3)nc3sc4c(c23)NC2(CCCC2)N=C4SCC(N)=O)cc1` with Aspergillus niger EM77 (KF774181) as test system.
Out: 8

In: Find the measured MIC of Clc1ccccc1C(c1ccccc1)(c1ccccc1)n1ccnc1 [Clotrimazole, clotrimazole, reference compound] with Aspergillus niger EM77 (KF774181) as test system.
Out: 8

In: Find the measured MIC of `Cc1ccc(-c2cc(-c3ccccc3)nc3sc4c(c23)NC2(CCCC2)NC4=S)cc1` with Aspergillus niger EM77 (KF774181) as test system.
Out: 128

----------
MIC tested on Candida albicans 10231: recorded values
The answer is to be given in µg/mL; state only the numeric part.

In: Find the measured MIC of `Cc1cc(C)c2c3c(sc2n1)C(=S)NC1(CCCC1)N3` with Candida albicans 10231 as test system.
Out: 16

In: Find the measured MIC of `Cc1cc(C)c2c(n1)sc1c(=O)[nH]c(CCl)nc12` with Candida albicans 10231 as test system.
Out: 16

In: Find the measured MIC of `Cc1cc(C)c2c3c(sc2n1)C(SCC(N)=O)=NC1(CCCCC1)N3` with Candida albicans 10231 as test system.
Out: 64

In: Find the measured MIC of `Cc1ccc(-c2cc(-c3ccccc3)nc3sc4c(Cl)nc(Cl)nc4c23)cc1` with Candida albicans 10231 as test system.
Out: 32

In: Find the measured MIC of `Cc1ccc(-c2cc(-c3ccccc3)nc3sc4c(c23)NC2(CCCC2)N=C4SCC(N)=O)cc1` with Candida albicans 10231 as test system.
Out: 8

In: Find the measured MIC of `Cc1ccc(-c2cc(-c3ccccc3)nc3sc4c(c23)NC2(CCCC2)NC4=S)cc1` with Candida albicans 10231 as test system.
Out: 64

In: Find the measured MIC of `Cc1cc(C)c2c(n1)sc1c(Cl)nc(Cl)nc12` with Candida albicans 10231 as test system.
Out: 16

In: Find the measured MIC of Clc1ccccc1C(c1ccccc1)(c1ccccc1)n1ccnc1 [Clotrimazole, clotrimazole, reference compound] with Candida albicans 10231 as test system.
Out: 16

In: Find the measured MIC of `Cc1ccc(-c2cc(-c3ccccc3)nc3sc4c(c23)NC2(CCCCC2)NC4=S)cc1` with Candida albicans 10231 as test system.
Out: 32

----------
What MIC was measured for each of the following?
System: Bacillus cereus 33018
Run description: In vitro antibacterial activity, MIC by broth dilution
Type: cell-based
Reported conditions: Gram +ve bacteria, read-out: MIC B. cereus
The answer is to be given in µg/mL; state only the numeric part.

In: Please list MIC recorded for the compound Cc1cc(C)c2c3c(sc2n1)C(SCC1CO1)=NC1(CCCCC1)N3 (centres unmarked)
Out: 8

In: Please list MIC recorded for the compound CC1(C)S[C@@H]2[C@H](NC(=O)[C@H](N)c3ccc(O)cc3)C(=O)N2[C@H]1C(=O)O [Amoxicillin, amoxicillin trihydrate, reference compound]
Out: 16

In: Please list MIC recorded for the compound `Cc1cc(C)c2c(n1)sc1c(=O)[nH]c(CCl)nc12`
Out: 4

In: Please list MIC recorded for the compound `Cc1cc(C)c2c(n1)sc1c(=O)[nH]c(=O)[nH]c12`
Out: 64

In: Please list MIC recorded for the compound `Cc1ccc(-c2cc(-c3ccccc3)nc3sc4c(c23)NC2(CCCC2)NC4=O)cc1`
Out: 16

In: Please list MIC recorded for the compound Cc1ccc(-c2cc(-c3ccccc3)nc3sc4c(c23)NC2(CCCC2)N=C4SCC2CO2)cc1 (centres unmarked)
Out: 8

In: Please list MIC recorded for the compound `Cc1ccc(-c2cc(-c3ccccc3)nc3sc4c(=O)[nH]c(CN5CCOCC5)nc4c23)cc1`
Out: 16

In: Please list MIC recorded for the compound `Cc1cc(C)c2c3c(sc2n1)C(=S)NC1(CCCC1)N3`
Out: 8
